Biological target: human SGLT2 (Homo sapiens, UniProt P31639, I433V)
Sequence (P31639 whole entry I433V): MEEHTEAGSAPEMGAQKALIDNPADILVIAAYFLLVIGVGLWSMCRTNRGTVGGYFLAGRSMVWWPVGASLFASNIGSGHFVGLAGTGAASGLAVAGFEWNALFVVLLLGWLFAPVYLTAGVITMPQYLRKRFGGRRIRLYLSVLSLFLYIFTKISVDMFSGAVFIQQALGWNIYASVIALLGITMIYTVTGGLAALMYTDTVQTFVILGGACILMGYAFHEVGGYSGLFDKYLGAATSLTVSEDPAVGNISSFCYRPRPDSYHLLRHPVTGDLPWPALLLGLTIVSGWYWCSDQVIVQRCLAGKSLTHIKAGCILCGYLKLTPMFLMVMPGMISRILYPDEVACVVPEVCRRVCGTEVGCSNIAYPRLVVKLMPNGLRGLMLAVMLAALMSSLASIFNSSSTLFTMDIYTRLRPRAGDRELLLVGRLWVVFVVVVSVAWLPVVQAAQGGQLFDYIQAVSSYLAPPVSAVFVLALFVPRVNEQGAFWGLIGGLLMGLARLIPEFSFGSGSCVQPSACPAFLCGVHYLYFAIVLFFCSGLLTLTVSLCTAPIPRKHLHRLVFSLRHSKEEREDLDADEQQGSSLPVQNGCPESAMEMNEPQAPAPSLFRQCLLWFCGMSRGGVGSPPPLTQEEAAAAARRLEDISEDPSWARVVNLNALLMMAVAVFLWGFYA
Assay: Assay for inhibitory effect on human SGLT2 activity (uptake of methyl-α-D-glucopyranoside)
Conditions: COS-7 cells transiently expressing human SGLT2; uptake of methyl-α-D-(U-14C)glucopyranoside, 37° C., 2 hours
pIC50: −log10 of the molar value.
readoutLabel: pIC50

OCCc1ccc(Cc2ccccc2O[C@@H]2O[C@H](CO)[C@@H](O)[C@H](O)[C@H]2O)cc1 [Example 10] ... 6.68

[1] OCCc1ccc(Cc2ccc(CO)cc2O[C@@H]2O[C@H](CO)[C@@H](O)[C@H](O)[C@H]2O)cc1 [Example 9]
[2] OCCCc1ccc(Cc2ccccc2O[C@@H]2O[C@H](CO)[C@@H](O)[C@H](O)[C@H]2O)cc1 [Example 11]
[3] CCc1ccc(Cc2ccc(CO)cc2O[C@@H]2O[C@H](CO)[C@@H](O)[C@H](O)[C@H]2O)cc1 [Example 8]
[4] CCCOc1ccc(Cc2ccc(CO)cc2O[C@@H]2O[C@H](CO)[C@@H](O)[C@H](O)[C@H]2O)cc1 [Example 7]
Exam item: list the entries in increasing order of pIC50. # list labels per requested ordering
4, 2, 1, 3

###

A collection of compounds and their measured Amount of urinary glucose excretion
Tested on: urinary glucose excretion
Assay: Assay for the facilitatory effect on urinary glucose excretion
Assay type: in vivo
Conditions: SD rats, 1 mg/kg intravenous, oral glucose 2 g/kg; in 24 hours per 200 g of body weight
Give your result in mg as a bare value.

COc1ccc(Cc2ccccc2O[C@@H]2O[C@H](CO)[C@@H](O)[C@H](O)[C@H]2O)cc1 ... 27.4
OCCc1ccc(Cc2ccccc2O[C@@H]2O[C@H](CO)[C@@H](O)[C@H](O)[C@H]2O)cc1 ... 69.5

For the compound `CCc1ccc(Cc2ccc(CO)cc2O[C@@H]2O[C@H](CO)[C@@H](O)[C@H](O)[C@H]2O)cc1` , what Amount of urinary glucose excretion is on record?
238.9

Same again, this time with `CCCOc1ccc(Cc2ccc(CO)cc2O[C@@H]2O[C@H](CO)[C@@H](O)[C@H](O)[C@H]2O)cc1`
109.1

This collection of values is drawn from patent US7045665B2.
